Collected normalised response values appear next to each entry.
- Tested on: MDA-MB-436
- procedureText: normalised response (% of control), CellTiter-Glo; higher = more viable cells (100 = DMSO, 0 = benzethonium chloride kill control)
- conditionsUsed: incubation time: 72 h
Give your result in % as a bare value.

Examples with their reported normalised response follow.
# compound, unit, normalised response
records = [
    ("CCCCC(=O)OCC(=O)[C@]1(O)Cc2c(O)c3c(c(O)c2[C@@H](O[C@H]2C[C@H](NC(=O)C(F)(F)F)[C@H](O)[C@H](C)O2)C1)C(=O)c1c(OC)cccc1C3=O [Valrubicin] (500 nM)", "%", 57.5),
    ("Cc1ccc(-c2cc(C(F)(F)F)nn2-c2ccc(S(N)(=O)=O)cc2)cc1 [Celecoxib] (1 nM)", "%", 95.1),
    ("CC[C@H](Nc1ncnc2[nH]cnc12)c1nc2cccc(F)c2c(=O)n1-c1ccccc1 [GS-1101] (1 nM)", "%", 92.5),
]

# input for lookup
### Prompt Tell me normalised response reported for Oc1ncc(N(CCCl)CCCl)c(O)n1 [Uracil mustard] (10 nM)
### Response 105

* * *

- Test system: MDA-MB-436
- conditionsUsed: 72 h
EC50, CellTiter-Glo for assorted compounds
Value expressed in nM; do not type the unit.

Example compounds with recorded EC50, CellTiter-Glo:
# itemSmiles, EC50, CellTiter-Glo (nM)
measured = [
    ("C=CCc1cccc(/C=N/NC(=O)CN2CCN(Cc3ccccc3)CC2)c1O", 3480),
    ("Nc1ccccc1NC(=O)c1ccc(CNC(=O)OCc2cccnc2)cc1", 1330),
    ("CC[C@H](Nc1ncnc2[nH]cnc12)c1nc2cccc(F)c2c(=O)n1-c1ccccc1", 6900),
    ("CC[C@H](C)C(=O)O[C@H]1C[C@H](O)C=C2C=C[C@H](C)[C@H](CC[C@@H](O)C[C@@H](O)CC(=O)O)[C@H]21", 27.6),
    ("O=C(Cc1ccc(-c2ccc(OCCN3CCOCC3)cc2)cn1)NCc1ccccc1", 51.4),
]

Please find the next compound below.
### Prompt Please give measured EC50, CellTiter-Glo of the following entry: `O=C(/C=C/c1cccnc1)NCCCCC1CCN(C(=O)c2ccccc2)CC1`
### Response 67.4

* * *

- Test system: HCC1937
- procedureText: normalised response (% of control), CellTiter-Glo; higher = more viable cells (100 = DMSO, 0 = benzethonium chloride kill control)
- conditionsUsed: incubation time: 72 h
propertyLabel: normalised response (%)
Give the value in % but do not write % after it.

# example entries with known answers
# compound, unit, normalised response
data = [
    ("O=C(Cc1ccc(-c2ccc(OCCN3CCOCC3)cc2)cn1)NCc1ccccc1 [KX2-391] (10 nM)", "%", 98.4),
    ("C=CCc1cccc(/C=N/NC(=O)CN2CCN(Cc3ccccc3)CC2)c1O [PAC-1] (1000 nM)", "%", 92.7),
]

### Prompt // output normalised response; input Cc1cnc(NC(=O)Nc2cc(Br)c(C)cc2OC[C@@H]2CNCCO2)cn1 [Rabusertib] (0.1 nM) ; system HCC1937
### Response 101

### Prompt State the measured normalised response (HCC1937) of Cc1cnc(NC(=O)Nc2cc(Br)c(C)cc2OC[C@@H]2CNCCO2)cn1 [Rabusertib] (100 nM)
### Response 92.4

### Prompt Name the value of normalised response reported for Nc1nc(F)nc2c1ncn2[C@@H]1O[C@H](CO)[C@@H](O)[C@@H]1O [Fludarabine] (10 nM) when tested on HCC1937.
### Response 107

* * *

- System: MDA-MB-453
- procedureText: normalised response (% of control), CellTiter-Glo; higher = more viable cells (100 = DMSO, 0 = benzethonium chloride kill control)
- conditionsUsed: incubation time: 72 h
Here the recorded normalised response is given for each entry.
The reply should be a number in %, with the unit left off.

# molecule, normalised response (%)
rows = [
    ("COc1cc([C@@H]2c3cc4c(cc3[C@@H](O[C@@H]3O[C@@H]5CO[C@@H](c6cccs6)O[C@H]5[C@H](O)[C@H]3O)[C@H]3COC(=O)[C@H]23)OCO4)cc(OC)c1O [Teniposide] (100 nM)", 118),
    ("Oc1ncc(N(CCCl)CCCl)c(O)n1 [Uracil mustard] (100 nM)", 95.5),
    ("O=C(O)C(=O)O.[NH-][C@@H]1CCCC[C@H]1[NH-].[Pt+2] [Oxaliplatin] (100 nM)", 87.5),
    ("CCCS(=O)(=O)Nc1ccc(F)c(C(=O)c2c[nH]c3ncc(-c4ccc(Cl)cc4)cc23)c1F [Vemurafenib] (100 nM)", 79.3),
]

Attention now turns to another entry.
### Prompt Dear colleague, please send me the reported normalised response for Nc1ccccc1NC(=O)c1ccc(CNC(=O)OCc2cccnc2)cc1 [Entinostat] (100 nM) when you can.
### Response 103

* * *

- System: DU-4475
- procedureText: drug sensitivity score (DSS), CellTiter-Blue viability (DSS (AUC-based score)); higher = stronger viability inhibition; extreme values may be limits of the assay
- conditionsUsed: incubation time: 72 h
propertyLabel: drug sensitivity score
Write the number on its own, no unit after it.

Answered cases to consult:
# compound, drug sensitivity score
data = [
    ("Nc1nc(F)nc2c1ncn2[C@@H]1O[C@H](CO)[C@@H](O)[C@@H]1O [Fludarabine]", 0),
    ("C1CN1c1nc(N2CC2)nc(N2CC2)n1 [Triethylenemelamine]", 0),
    ("Nc1nc2[nH]cc(CCc3ccc(C(=O)N[C@@H](CCC(=O)O)C(=O)O)cc3)c2c(=O)[nH]1 [Pemetrexed]", 0),
]

### Prompt Recall the reported drug sensitivity score of C[C@H]1C[C@@H]2[C@H]([C@@H](O)C[C@@]3(C)[C@H]2CC[C@]3(O)C(=O)CO)[C@@]2(C)C=CC(=O)C=C12 [Methylprednisolone] when tested on DU-4475.
### Response 0

### Prompt Provide measured drug sensitivity score on DU-4475 for O=C(/C=C/c1cccnc1)NCCCCC1CCN(C(=O)c2ccccc2)CC1 [FK-866] please.
### Response 19.8

### Prompt Write drug sensitivity score of CC1=C(/C=C/C(C)=C/C=C/C(C)=C/C(=O)O)C(C)(C)CCC1 [Tretinoin] ; system used: DU-4475
### Response 0

* * *

- Tested on: DU-4475
- procedureText: normalised response (% of control), CellTox Green; higher = less cell death (100 = DMSO, 0 = benzethonium chloride kill control)
- conditionsUsed: incubation time: 72 h
The entries below are paired with their reported normalised response.
Give the value, in units of %, as a plain number.

# molecule, assayTarget, unit, normalised response
measured = [
    ("CC1=C(/C=C/C(C)=C/C=C/C(C)=C/C(=O)O)C(C)(C)CCC1 [Tretinoin] (1000 nM)", "DU-4475", "%", 105),
    ("Oc1ncc(N(CCCl)CCCl)c(O)n1 [Uracil mustard] (100 nM)", "DU-4475", "%", 108),
    ("CC[C@@H]1C(=O)N(C)c2cnc(Nc3ccc(C(=O)NC4CCN(C)CC4)cc3OC)nc2N1C1CCCC1 [BI 2536] (100 nM)", "DU-4475", "%", 98.5),
    ("Cc1ccc(-c2cc(C(F)(F)F)nn2-c2ccc(S(N)(=O)=O)cc2)cc1 [Celecoxib] (10000 nM)", "DU-4475", "%", 99.5),
    ("Nc1nc2[nH]cc(CCc3ccc(C(=O)N[C@@H](CCC(=O)O)C(=O)O)cc3)c2c(=O)[nH]1 [Pemetrexed] (1000 nM)", "DU-4475", "%", 98.2),
]

### Prompt Answer with the recorded normalised response for the molecule listed here: Nc1nc(F)nc2c1ncn2[C@@H]1O[C@H](CO)[C@@H](O)[C@@H]1O [Fludarabine] (10000 nM)
### Response 97.6

### Prompt Give recorded normalised response. Oc1ncc(N(CCCl)CCCl)c(O)n1 [Uracil mustard] (10000 nM)
### Response 100

### Prompt Item CC[C@H](Nc1ncnc2[nH]cnc12)c1nc2cccc(F)c2c(=O)n1-c1ccccc1 [GS-1101] (10000 nM) : provide normalised response
### Response 95.5

### Prompt State its normalised response: COc1cc([C@@H]2c3cc4c(cc3[C@@H](O[C@@H]3O[C@@H]5CO[C@@H](c6cccs6)O[C@H]5[C@H](O)[C@H]3O)[C@H]3COC(=O)[C@H]23)OCO4)cc(OC)c1O [Teniposide] (10000 nM)
### Response 61.9

### Prompt Please report normalised response for the following molecule: O=C(Cc1ccc(-c2ccc(OCCN3CCOCC3)cc2)cn1)NCc1ccccc1 [KX2-391] (100 nM)
### Response 95.7

### Prompt Identify normalised response associated with the molecule COc1cc2c(NC3CCN(C(C)C)CC3)nc(C3CCCCC3)nc2cc1OCCCN1CCCC1 [UNC0638] (10000 nM)
### Response 88.3
